Data provenance is patent US20240376151A1.

Target: MDM2 (Homo sapiens, UniProt Q00987)
Construct: made in house
Sequence (Q00987 25-109): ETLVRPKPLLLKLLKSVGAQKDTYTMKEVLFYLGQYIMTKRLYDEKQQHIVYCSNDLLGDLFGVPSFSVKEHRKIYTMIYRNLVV
Assay: Naive Library Presenter Screening (phage, NGS), MDM2
Type: binding
Details: MDM2 target concentration 100 nM
Numbered stars: 1 amine (or outer) side, 2 acyl side, 3 side chain; on linkers, the order of the positions; unused ones are H or OH. Bridge positions count the residues as written; N and C are the ends. Ends that are not written are not given here. Phenylene(1,4-NHCOCH2)2 = O=C(C[*:1])Nc1ccc(NC(=O)C[*:2])cc1
Decide by interaction data at Target Concentration 100: equal to or exceeding 20 means criterion met, less means criterion not met.

Before answering, review these 7 worked examples.
residue_sequence="DPASEACFQAAWDCVSW (DPASEACFQAAWDCVSW-NH2; linker 7-14 via Phenylene(1,4-NHCOCH2)2 (inferred))" label_value="criterion met"
residue_sequence="DPATQQCFQAAWDCQFM (linker 7-14 via Phenylene(1,4-NHCOCH2)2 (inferred))" label_value="criterion met"
residue_sequence="DPAFDSCFSAAWDCMYW (linker 7-14 via Phenylene(1,4-NHCOCH2)2 (inferred))" label_value="criterion met"
residue_sequence="DPAENECFTAAWDCMFF (linker 7-14 via Phenylene(1,4-NHCOCH2)2 (inferred))" label_value="criterion not met"
residue_sequence="DPADSECFQAASDCQYW (linker 7-14 via Phenylene(1,4-NHCOCH2)2 (inferred))" label_value="criterion not met"
residue_sequence="DPADNRCFQAAWDCAFW (linker 7-14 via Phenylene(1,4-NHCOCH2)2 (inferred))" label_value="criterion met"
residue_sequence="DPAYASCFSAAWDCQFW (linker 7-14 via Phenylene(1,4-NHCOCH2)2 (inferred))" label_value="criterion not met"

Now consider the entry below.
**Q:** Hello, I need to know if DPANHACFQAAWDCQFF (linker 7-14 via Phenylene(1,4-NHCOCH2)2 (inferred)) has measured interaction data at Target Concentration 100 not below 20. Thanks!
**A:** criterion met

---

interaction data at Target Concentration 10 values for the sequences below.
Target: CUL5 (Homo sapiens, UniProt Q93034, L345D/V341R)
Construct: GST-TEV (N, cleaved yes); made in house; host or cells: E. coli BL21 CodonPlus
Sequence (Q93034 1-386 V341R/L345D): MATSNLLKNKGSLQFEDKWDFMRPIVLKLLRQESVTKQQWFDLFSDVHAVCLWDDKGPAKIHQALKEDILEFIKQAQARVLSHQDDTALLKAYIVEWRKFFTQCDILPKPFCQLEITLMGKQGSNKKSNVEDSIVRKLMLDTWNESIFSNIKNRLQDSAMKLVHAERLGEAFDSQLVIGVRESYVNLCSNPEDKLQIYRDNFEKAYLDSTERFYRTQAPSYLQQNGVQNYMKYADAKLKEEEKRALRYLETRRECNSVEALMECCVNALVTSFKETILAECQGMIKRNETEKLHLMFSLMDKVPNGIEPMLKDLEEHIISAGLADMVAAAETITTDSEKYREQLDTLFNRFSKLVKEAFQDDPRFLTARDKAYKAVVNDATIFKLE
Experiment: Naive Library Presenter Screening (phage, NGS), CUL5
Format: binding
Conditions: CUL5 target concentration 10 nM
Ends that are not written are not given here.
Just the number.

residue_sequence=DPAWYECASAAWVCYSM assay_target="CUL5 (Homo sapiens, UniProt Q93034, L345D/V341R)" value_observed=0
residue_sequence=DPAYYVCAEAAWNCLFE assay_target="CUL5 (Homo sapiens, UniProt Q93034, L345D/V341R)" value_observed=4

Now for another entry.
**Q:** State its interaction data at Target Concentration 10 on CUL5 (Homo sapiens, UniProt Q93034, L345D/V341R): DPAWHMCAEAAWQCAFW (not fully specified (C-terminus, bridges); cysteine pairing not given here)
**A:** 5

---

Molecular target: CUL4B (Homo sapiens, UniProt Q13620, L520D/V516R)
Construct: GST-TEV (N, cleaved yes); made in house; host or cells: E. coli BL21 CodonPlus
Sequence (Q13620 206-557 V516R/L520D): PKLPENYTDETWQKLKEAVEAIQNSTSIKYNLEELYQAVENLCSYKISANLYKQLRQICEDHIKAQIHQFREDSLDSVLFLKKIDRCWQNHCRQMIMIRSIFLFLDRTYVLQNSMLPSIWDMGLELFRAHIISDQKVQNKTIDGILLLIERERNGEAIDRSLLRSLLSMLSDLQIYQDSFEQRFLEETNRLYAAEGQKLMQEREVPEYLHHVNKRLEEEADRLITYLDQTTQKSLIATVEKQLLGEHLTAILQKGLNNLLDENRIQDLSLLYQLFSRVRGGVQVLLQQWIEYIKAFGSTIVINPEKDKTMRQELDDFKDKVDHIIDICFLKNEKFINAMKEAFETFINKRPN
Assay: Naive Library Presenter Screening (phage, NGS), CUL4B
Assay type: binding
Conditions: CUL4B target concentration 300 nM
interaction data at Target Concentration 300 values for the sequences below.
Just the number.

These recorded examples may help you get a feel for the data.
residue_sequence=DPADRYCDMAAWVCERF assay_target="CUL4B (Homo sapiens, UniProt Q13620, L520D/V516R)" value_observed=248
residue_sequence=DPASRLCELAAWVCDSF assay_target="CUL4B (Homo sapiens, UniProt Q13620, L520D/V516R)" value_observed=319
residue_sequence=DPAQRACQFAAWICERF assay_target="CUL4B (Homo sapiens, UniProt Q13620, L520D/V516R)" value_observed=56

Now for another entry.
**Q:** Returns the measured interaction data at Target Concentration 300 for the input sequence. Input: DPATRHCIFAAWACDRF
**A:** 20

---

Target: RNF31 UBA domain (Homo sapiens)
Construct: RNF31 UBA domain protein (residues 480-639) with N-terminal Thioredoxin-TEV-6×his-yBBr-3C tags; Thioredoxin (N, cleaved yes); made in house; host or cells: E. coli BL21 (DE3) pLysS
Sequence (Q96EP0 480-639): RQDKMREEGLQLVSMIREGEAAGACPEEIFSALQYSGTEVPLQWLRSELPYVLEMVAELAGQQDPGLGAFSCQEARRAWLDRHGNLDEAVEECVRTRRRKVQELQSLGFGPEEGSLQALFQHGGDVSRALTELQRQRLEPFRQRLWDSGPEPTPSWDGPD
Assay: Phage Library Screening with NGS, RNF31 UBA domain
Assay type: binding
Conditions: Target Concentration 300; no competitor
readout: phage screen NGS read-out at Target Concentration 300
Just the number.

These recorded examples may help you get a feel for the data.
residue_sequence=DPAFSRCVYAAFTCQTF value_observed=10
residue_sequence=DPASIHCAAAALWCDIL value_observed=8
residue_sequence=DPAQVHCRSAAAWCILM value_observed=2

**Q:** Returns the measured phage screen NGS read-out at Target Concentration 300 for the input sequence. Input: DPAHVHCQAAAQWCVLL
**A:** 6

**Q:** Query DPAREHCDSAAIFCYIL next
**A:** 14

**Q:** Query DPASIICMLAADNCLYE next
**A:** 0

**Q:** Query DPANEHCIAAAWWCQIL next
**A:** 3

**Q:** Query DPAHHHCQAAAAWCWVM next
**A:** 19

**Q:** Query DPAEWICRMAAMNCLYQ (Ac-DPAEWICRMAAMNCLYQ-NH2; not fully specified (bridges); cysteine pairing not given here) next
**A:** 10

**Q:** Query DPADYICYLAANNCLYH next
**A:** 19

**Q:** Query DPALSTCVYAAVMCQDV next
**A:** 4

**Q:** Query DPAQQHCSAAAAWCVVL next
**A:** 10

**Q:** Query DPAFSQCVYAAFFCREI next
**A:** 20

**Q:** Query DPARWVCELAAQNCLYR next
**A:** 1

**Q:** Query DPALQHCAAAASWCWLM next
**A:** 20

---

Target: RNF31 PUB domain (Homo sapiens, UniProt Q96EP0)
Construct: MBP-TEV (N, cleaved yes); made in house; host or cells: E. coli BL21 (DE3) pLysS
Sequence (Q96EP0 1-179): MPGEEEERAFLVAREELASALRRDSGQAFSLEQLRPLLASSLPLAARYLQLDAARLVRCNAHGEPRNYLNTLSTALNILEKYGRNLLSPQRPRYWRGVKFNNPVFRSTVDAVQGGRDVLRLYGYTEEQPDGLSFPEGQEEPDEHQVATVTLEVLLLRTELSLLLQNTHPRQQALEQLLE
Test: Phage Library Screening with NGS, RNF31 PUB domain
Format: binding
Conditions: RNF31 PUB domain clusters C41-C45; target concentration 1000, second column
# Phage library screen NGS readout, Target Concentration 1000 binned as Low: < 6; Medium: ≥ 6 and < 30; High: ≥ 30

residue_sequence=DPAYDYCLYAAQDCVWW label_value=Low
residue_sequence=DPALSHCTVAAMVCSTY label_value=High
residue_sequence=DPARRECWDAAILCTYY label_value=High
residue_sequence=DPASEWCLDAAVLCTYS label_value=High
residue_sequence=DPAQYQCWNAAMSCSYS label_value=Low
residue_sequence=DPAIQECYLAAQVCTTY label_value=Medium

**Q:** Consider DPAEEYCLEAAILCTYD . To which Phage library screen NGS readout, Target Concentration 1000 class does it belong?
**A:** High

**Q:** Query DPAFDWCLYAADDCAET next
**A:** Medium

**Q:** Query DPAVVDCWDAAVQCTYY next
**A:** Medium

**Q:** Query DPAQEACWDAAIMCTYR next
**A:** High
